Value source: ChEMBL document CHEMBL1127617

Test system: P388
Assay: In vitro cytotoxicity against P388 (murine leukemia) cell line.
Type: functional, cell-based
Conditions: Mus musculus
Recorded IC50 by entry
Give the number; µg/mL is assumed, so skip it.

Mol Smiles	Experimental Target	IC50 (µg/mL)
CCCC[C@H](NC(=O)OC(C)(C)C)[C@@H](O)C(=O)O[C@H]1C[C@@]2(O)[C@@H](OC(=O)c3ccccc3)[C@@H]3[C@]4(OC(C)=O)CO[C@@H]4C[C@H](O)[C@@]3(C)[C@@H](O)[C@H](OC(C)=O)C(=C1C)C2(C)C	P388	0.018

From here, focus on the item given below.
// field: IC50; key: "CC[C@H](NC(=O)OC(C)(C)C)[C@@H](O)C(=O)O[C@H]1C[C@@]2(O)[C@@H](OC(=O)c3ccccc3)[C@@H]3[C@]4(OC(C)=O)CO[C@@H]4C[C@H](O)[C@@]3(C)[C@@H](O)[C@H](OC(C)=O)C(=C1C)C2(C)C" ; value = 0.011

====

Assay: Compound was tested for the concentration of agent which reduces the supernatant protein concentration (tubulin, 1 mg/mL) by 50%; ED50/ED50taxol
Type: functional
We begin with a simple list: items and their reported Ratio.
Would you mind answering with just the numeric figure?

See these solved cases before continuing.
Compound	Ratio
CC(=O)O[C@@H]1C2=C(C)[C@@H](OC(=O)[C@H](O)[C@@H](NC(=O)OC(C)(C)C)C(C)O)C[C@@](O)([C@@H](OC(=O)c3ccccc3)[C@@H]3[C@]4(OC(C)=O)CO[C@@H]4C[C@H](O)[C@@]3(C)[C@H]1O)C2(C)C (single isomer, unassigned)	0.8
C=C[C@H](NC(=O)OC(C)(C)C)[C@@H](O)C(=O)O[C@H]1C[C@@]2(O)[C@@H](OC(=O)c3ccccc3)[C@@H]3[C@]4(OC(C)=O)CO[C@@H]4C[C@H](O)[C@@]3(C)[C@@H](O)[C@H](OC(C)=O)C(=C1C)C2(C)C	0.92
CC(=O)O[C@@H]1C2=C(C)[C@@H](OC(=O)[C@H](O)[C@@H](NC(=O)OC(C)(C)C)C(C)O)C[C@@](O)([C@@H](OC(=O)c3ccccc3)[C@@H]3[C@]4(OC(C)=O)CO[C@@H]4C[C@H](O)[C@@]3(C)[C@H]1O)C2(C)C (mixture of isomers)	1.2

Continue with the compound presented below.
Consider "COC[C@H](NC(=O)c1ccccc1)[C@@H](O)C(=O)O[C@H]1C[C@@]2(O)[C@@H](OC(=O)c3ccccc3)[C@@H]3[C@]4(OC(C)=O)CO[C@@H]4C[C@H](O)[C@@]3(C)[C@@H](O)[C@H](OC(C)=O)C(=C1C)C2(C)C" . Its measured Ratio is 3.14

====

Tested on: P388
Test: In vitro cytotoxicity against P388 (murine leukemia) cell line.
Format: functional, cell-based
Conditions: Mus musculus
Friendly reminder: IC50 below 0.04 mg/L is true, at or above is false.

Field: example entries. Status: answers known.
Mol Smiles	Classification
CC(=O)O[C@@H]1C2=C(C)[C@@H](OC(=O)[C@H](O)[C@H](COc3ccccc3)NC(=O)c3ccccc3)C[C@@](O)([C@@H](OC(=O)c3ccccc3)[C@@H]3[C@]4(OC(C)=O)CO[C@@H]4C[C@H](O)[C@@]3(C)[C@H]1O)C2(C)C	false
CC(=O)O[C@@H]1C2=C(C)[C@@H](OC(=O)[C@H](O)[C@@H](NC(=O)OC(C)(C)C)c3ccccc3)C[C@@](O)([C@@H](OC(=O)c3ccccc3)[C@@H]3[C@]4(OC(C)=O)CO[C@@H]4C[C@H](O)[C@@]3(C)[C@H]1O)C2(C)C	true
CC(=O)O[C@@H]1C2=C(C)[C@@H](OC(=O)[C@H](O)[C@@H](NC(=O)OC(C)(C)C)[C@H]3COC(C)(C)O3)C[C@@](O)([C@@H](OC(=O)c3ccccc3)[C@@H]3[C@]4(OC(C)=O)CO[C@@H]4C[C@H](O)[C@@]3(C)[C@H]1O)C2(C)C	false
CC(=O)O[C@@H]1C2=C(C)[C@@H](OC(=O)[C@H](O)[C@H](Cc3ccccc3)NC(=O)OC(C)(C)C)C[C@@](O)([C@@H](OC(=O)c3ccccc3)[C@@H]3[C@]4(OC(C)=O)CO[C@@H]4C[C@H](O)[C@@]3(C)[C@H]1O)C2(C)C	false

Q: Does the reported IC50 of the following compound sit strictly below 0.04 mg/L? "CC(=O)O[C@@H]1C2=C(C)[C@@H](OC(=O)[C@H](O)[C@H](CC(C)C)NC(=O)OC(C)(C)C)C[C@@](O)([C@@H](OC(=O)c3ccccc3)[C@@H]3[C@]4(OC(C)=O)CO[C@@H]4C[C@H](O)[C@@]3(C)[C@H]1O)C2(C)C"
Ans: true

Q: Dear colleague, could you confirm whether IC50 of "CC(=O)O[C@@H]1C2=C(C)[C@@H](OC(=O)[C@H](O)[C@@H](NC(=O)c3ccccc3)c3ccccc3)C[C@@](O)([C@@H](OC(=O)c3ccccc3)[C@@H]3[C@]4(OC(C)=O)CO[C@@H]4C[C@H](O)[C@@]3(C)[C@H]1O)C2(C)C" falls below 0.04 mg/L? Thanks.
Ans: false

Q: In the record for "CC(=O)O[C@@H]1C2=C(C)[C@@H](OC(=O)[C@H](O)[C@H](C)NC(=O)OC(C)(C)C)C[C@@](O)([C@@H](OC(=O)c3ccccc3)[C@@H]3[C@]4(OC(C)=O)CO[C@@H]4C[C@H](O)[C@@]3(C)[C@H]1O)C2(C)C" , is IC50 less than 0.04 mg/L?
Ans: false

Q: Determine if "C=C[C@H](NC(=O)OC(C)(C)C)[C@@H](O)C(=O)O[C@H]1C[C@@]2(O)[C@@H](OC(=O)c3ccccc3)[C@@H]3[C@]4(OC(C)=O)CO[C@@H]4C[C@H](O)[C@@]3(C)[C@@H](O)[C@H](OC(C)=O)C(=C1C)C2(C)C" shows IC50 strictly lower than 0.04 mg/L.
Ans: true
